Data provenance: ChEMBL document CHEMBL5036327

- Tested system: Toll-like receptor 7 (Homo sapiens, UniProt Q9NYK1)
- Sequence (Q9NYK1 whole entry): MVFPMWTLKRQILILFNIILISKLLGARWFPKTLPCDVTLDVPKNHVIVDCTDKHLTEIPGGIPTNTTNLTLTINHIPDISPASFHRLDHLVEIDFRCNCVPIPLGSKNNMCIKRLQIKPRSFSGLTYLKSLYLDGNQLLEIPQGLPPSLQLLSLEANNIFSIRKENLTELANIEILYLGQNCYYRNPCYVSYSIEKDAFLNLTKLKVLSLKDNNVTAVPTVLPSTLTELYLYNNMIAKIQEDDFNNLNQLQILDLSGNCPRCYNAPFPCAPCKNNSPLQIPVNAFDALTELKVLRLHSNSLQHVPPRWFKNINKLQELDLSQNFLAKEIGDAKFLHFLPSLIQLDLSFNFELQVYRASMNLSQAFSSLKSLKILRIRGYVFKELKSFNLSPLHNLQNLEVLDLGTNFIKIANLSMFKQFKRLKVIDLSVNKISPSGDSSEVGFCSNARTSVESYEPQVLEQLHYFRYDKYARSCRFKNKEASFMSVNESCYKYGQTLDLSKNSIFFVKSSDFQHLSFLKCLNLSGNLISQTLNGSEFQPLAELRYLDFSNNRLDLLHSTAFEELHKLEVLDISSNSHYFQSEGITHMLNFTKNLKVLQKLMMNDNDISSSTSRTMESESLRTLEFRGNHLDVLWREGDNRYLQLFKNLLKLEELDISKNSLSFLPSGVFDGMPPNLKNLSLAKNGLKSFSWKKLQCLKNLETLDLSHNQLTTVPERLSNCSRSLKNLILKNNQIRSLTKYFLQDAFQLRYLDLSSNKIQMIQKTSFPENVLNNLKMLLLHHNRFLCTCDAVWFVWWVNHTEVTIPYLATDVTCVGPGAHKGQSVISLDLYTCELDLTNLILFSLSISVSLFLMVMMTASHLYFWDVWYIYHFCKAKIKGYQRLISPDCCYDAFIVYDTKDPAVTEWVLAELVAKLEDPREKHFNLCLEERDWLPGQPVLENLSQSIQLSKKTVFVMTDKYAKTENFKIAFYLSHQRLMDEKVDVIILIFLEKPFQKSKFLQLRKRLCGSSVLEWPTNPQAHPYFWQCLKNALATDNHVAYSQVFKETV
- Assay text: Antagonist activity at human TLR7 expressed in HEK-blue-HTLR7 cells assessed as inhibition of CL264-induced NFkappaB activation measured after overnight incubation by SEAP-based spectrophotometry assay
Endpoint label: IC50 (µM)
State the answer as a number, implicitly in µM.

The compound `CCN1CCN(c2nc(NCc3ccc(CN(C)C)cc3)nc3c2ncn3CCCN2CCCC2)CC1` showed IC50 equal to 17.8

The compound `CCN1CCN(CCCn2cnc3c(N4CCN(C5CCCC5)CC4)nc(NCc4ccc(N(CC)CC)cc4)nc32)CC1` showed IC50 equal to 8.13
